Hey, just so you know, these numbers are from paper PMC12770939.

measurement_protocol: Phase 1 study: plasma pharmacokinetics, noncompartmental analysis
Format: in vivo, human
particulars: human, plasma, oral
reported_endpoint: half-life (h)
# number only, unit h dropped from output

What does the data say about its half-life? Entry: C[C@H](Nc1ccc2c(c1)OCCn1cc(N3C(=O)OC[C@H]3C(F)F)nc1-2)C(N)=O
16
